Assay: Pharmacokinetic study in beagle dogs
Format: in vivo
Conditions: male, beagle, dog, plasma, iv, 4.2 mg, IV aqueous solution, dose 4.2 mg, male beagle dogs; read-out: Vss
quantity.measured: Vd

The recorded Vd for entry O=C(O)[C@H]1/C(=C/CO)O[C@@H]2CC(=O)N21 [potassium clavulanate] equals 3.8 L

====

Experiment: Pharmacokinetic study in beagle dogs
Assay type: in vivo
Conditions: dog, plasma; IV aqueous solution, dose 4.2 mg, male beagle dogs; read-out: t1/2 (converted)
quantity.measured: half-life (min)
Write it as a number; the unit min goes unstated.

The recorded half-life for entry O=C(O)[C@H]1/C(=C/CO)O[C@@H]2CC(=O)N21 [potassium clavulanate] equals 31.2

====

Assay: Pharmacokinetic study in beagle dogs
Format: in vivo
Conditions: dog, plasma; IV aqueous solution, dose 4.2 mg, male beagle dogs
quantity.measured: MRT inf (min)
Write it as a number; the unit min goes unstated.

The recorded MRT inf for entry O=C(O)[C@H]1/C(=C/CO)O[C@@H]2CC(=O)N21 [potassium clavulanate] equals 39

====

Assay: Pharmacokinetic study in beagle dogs
Type: in vivo
Details: male, beagle, dog, plasma, iv, 4.2 mg, IV aqueous solution, dose 4.2 mg, male beagle dogs; read-out: Vd
quantity.measured: Vd (L)
Write it as a number; the unit L goes unstated.

The recorded Vd for entry O=C(O)[C@H]1/C(=C/CO)O[C@@H]2CC(=O)N21 [potassium clavulanate] equals 4.4

====

Assay: Pharmacokinetic study in beagle dogs
Format: in vivo
Settings: male, dog, plasma; beagle dogs; read-out: apparent terminal half-life (converted)
Description: The amount of clavulanate in the plasma of beagle dogs was measured by LC/MS/MS method. The chromatographic separation of the analytes was performed on a reverse-phase PLRP-S polymeric column. […] The mass spectral data were analyzed by Analyst 1.4.1 (Applied Biosystems). […] Three male Beagle dogs were used throughout the study in a cross-over design with washout period between treatments. […] Plasma was obtained via centrifugation at 3,000 rpm for 10 min and analyzed by an LC-MS/MS system. […]
quantity.measured: half-life (min)
Write it as a number; the unit min goes unstated.

The recorded half-life for entry O=C(O)[C@H]1/C(=C/CO)O[C@@H]2CC(=O)N21 [potassium clavulanate] equals 30
